The measurements presented in this section are drawn from patent US10472333B2.

MEASUREMENT_TARGET: UniProtKB Q99571
ASSAY_INFO: P2X4 receptor antagonist activity, ATP-induced intracellular calcium (Fura-2 AM) in 1321N1 cells stably expressing human P2X4 receptor
Format: cell-based
Structures can show the parent of a compound that is named as a salt.
Task for the reader: assign each of the following molecules its reported IC50.
One number for each entry, in µM.

Here are 2 molecules together with their reported answers.
[
  {
    "MOLECULE": "O=C1CN=C(c2ccc(NC(=O)c3cccnc3-n3cccc3)cc2)c2ccc3ccccc3c2N1 [Example 19, dihydrochloride]",
    "OBSERVED_PROPERTY": "IC50",
    "REPORTED_VALUE": 2.4
  },
  {
    "MOLECULE": "CC(C)Nc1ncccc1C(=O)Nc1ccc(C2=NCC(=O)Nc3c2ccc2ccccc32)cc1 [Example 24, dihydrochloride]",
    "OBSERVED_PROPERTY": "IC50",
    "REPORTED_VALUE": 8.6
  }
]

Proceed to the following item.
Quick check: IC50 of O=C1CN=C(c2ccc(NC(=O)c3cccnc3N3CCCC3)cc2)c2ccc3ccccc3c2N1 [Example 21, dihydrochloride] ?
1.3

---

MEASUREMENT_TARGET: human P2X4 receptor (Homo sapiens)
Sequence (Q99571 1-388): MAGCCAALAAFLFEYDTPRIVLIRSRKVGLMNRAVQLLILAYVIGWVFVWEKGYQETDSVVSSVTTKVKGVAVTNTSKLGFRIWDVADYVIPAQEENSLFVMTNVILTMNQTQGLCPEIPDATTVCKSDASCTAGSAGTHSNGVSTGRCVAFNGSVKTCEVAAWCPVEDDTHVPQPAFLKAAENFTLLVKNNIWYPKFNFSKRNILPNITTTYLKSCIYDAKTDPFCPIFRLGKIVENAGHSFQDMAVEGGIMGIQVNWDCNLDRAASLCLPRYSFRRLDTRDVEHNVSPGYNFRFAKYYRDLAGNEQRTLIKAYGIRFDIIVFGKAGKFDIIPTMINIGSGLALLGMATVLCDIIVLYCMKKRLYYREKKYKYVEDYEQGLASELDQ
ASSAY_INFO: P2X4 receptor antagonist activity, ATP-induced intracellular calcium (Fura-2 AM) in 1321N1 cells stably expressing human P2X4 receptor
Type: cell-based
Counter-ions that a name gives are not always drawn.
OBSERVED_PROPERTY: pIC50
Give bare numbers, as −log10 of the molar value.

Here are 6 compounds together with their reported answers.
[
  {
    "COMPOUND": "CCc1cccc(O)c1C(=O)Nc1ccc(C2=NCC(=O)Nc3c2ccc2ccccc32)cc1",
    "pIC50": 5.82
  },
  {
    "COMPOUND": "CCc1ncccc1C(=O)Nc1ccc(C2=NCC(=O)Nc3c2ccc2ccccc32)cc1 [Example 3, dihydrochloride]",
    "pIC50": 5.80
  },
  {
    "COMPOUND": "COc1ccccc1CC(=O)Nc1ccc(C2=NCC(=O)Nc3c2ccc2ccccc32)cc1",
    "pIC50": 6.01
  },
  {
    "COMPOUND": "O=C1CN=C(c2ccc(NC(=O)c3cccnc3N3CCOCC3)cc2)c2ccc3ccccc3c2N1 [Example 20, dihydrochloride]",
    "pIC50": 5.60
  },
  {
    "COMPOUND": "CC(C)c1ncccc1C(=O)Nc1ccc(C2=NCC(=O)Nc3c2ccc2ccccc32)cc1 [Example 23, dihydrochloride]",
    "pIC50": 5.64
  },
  {
    "COMPOUND": "CCc1c(O)cccc1C(=O)Nc1ccc(C2=NCC(=O)Nc3c2ccc2ccccc32)cc1",
    "pIC50": 6.11
  }
]

Proceed to the following item.
Quick check: pIC50 of CN(C)c1ccncc1C(=O)Nc1ccc(C2=NCC(=O)Nc3c2ccc2ccccc32)cc1 [Example 22, dihydrochloride] ?
5.82

---

MEASUREMENT_TARGET: Mouse P2X4 (Mus musculus, UniProt Q9JJX6)
Sequence (Q9JJX6 1-388): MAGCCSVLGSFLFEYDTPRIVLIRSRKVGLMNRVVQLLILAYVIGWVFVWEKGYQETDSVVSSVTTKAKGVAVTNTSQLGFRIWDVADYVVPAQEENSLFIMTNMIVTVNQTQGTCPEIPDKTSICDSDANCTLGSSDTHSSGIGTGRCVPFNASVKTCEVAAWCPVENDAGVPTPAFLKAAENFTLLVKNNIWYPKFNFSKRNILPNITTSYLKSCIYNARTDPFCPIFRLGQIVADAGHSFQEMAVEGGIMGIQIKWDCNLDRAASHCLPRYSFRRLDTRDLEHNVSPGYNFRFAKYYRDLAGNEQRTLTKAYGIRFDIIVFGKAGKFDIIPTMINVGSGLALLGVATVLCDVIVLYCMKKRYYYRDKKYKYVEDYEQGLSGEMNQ
ASSAY_INFO: P2X receptor family selectivity, calcium imaging method using cells expressing the receptor
OBSERVED_PROPERTY: pIC50
Numbers only, as −log10 of the molar value.

Quick check: pIC50 of CN(C)c1ncccc1C(=O)Nc1ccc(C2=NCC(=O)Nc3c2ccc2ccccc32)cc1.Cl.Cl [Example 15, dihydrochloride] ?
6.28
